- testSystem: human glucocorticoid receptor protein (GR) (Homo sapiens)
- Sequence (P04150 whole entry): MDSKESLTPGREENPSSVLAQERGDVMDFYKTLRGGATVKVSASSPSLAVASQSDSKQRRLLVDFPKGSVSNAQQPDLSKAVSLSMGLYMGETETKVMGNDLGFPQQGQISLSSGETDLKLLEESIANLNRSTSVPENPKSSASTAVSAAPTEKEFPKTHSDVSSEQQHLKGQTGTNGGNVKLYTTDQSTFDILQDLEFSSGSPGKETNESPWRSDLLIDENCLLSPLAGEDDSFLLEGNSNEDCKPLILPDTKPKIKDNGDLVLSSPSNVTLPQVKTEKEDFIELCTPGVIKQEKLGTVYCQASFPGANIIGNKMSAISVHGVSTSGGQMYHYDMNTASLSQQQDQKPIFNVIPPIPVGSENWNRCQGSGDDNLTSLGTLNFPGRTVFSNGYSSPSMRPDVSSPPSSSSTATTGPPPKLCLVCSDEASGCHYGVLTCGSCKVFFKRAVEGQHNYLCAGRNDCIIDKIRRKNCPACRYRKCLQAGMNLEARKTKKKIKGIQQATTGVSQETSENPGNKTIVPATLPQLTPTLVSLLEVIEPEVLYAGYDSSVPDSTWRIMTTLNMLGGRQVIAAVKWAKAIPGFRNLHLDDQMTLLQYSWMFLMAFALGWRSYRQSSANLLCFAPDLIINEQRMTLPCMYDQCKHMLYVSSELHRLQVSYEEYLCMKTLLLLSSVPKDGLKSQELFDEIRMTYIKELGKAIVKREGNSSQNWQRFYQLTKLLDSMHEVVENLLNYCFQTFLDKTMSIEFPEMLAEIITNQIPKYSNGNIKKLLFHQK
- procedureSummary: Glucocorticoid binding assay ([3H]dexamethasone displacement, GR lysate)
- statedConditions: baculovirus-expressed GR lysate from Sf21 cells; 2-4 nM [3H]dexamethasone; 16 hours at 4° C.; Cheng-Prusoff from IC50

- compound: "CC(C)=CCC1(C)C(=O)C(C)(C)Nc2c(C)cc(-c3c(C)noc3C)c(Cl)c21 (racemic)"
  Ki: "2.5 nM"
- compound: "Cc1cc(-c2csc3ccccc23)c(Cl)c2c1NC(C)(C)CC2C (racemic)"
  Ki: "4 nM"
- compound: "COc1cccc(OC)c1-c1cc(C)c2c(c1Cl)C(C)CC(C)(C)N2 (racemic)"
  Ki: "34 nM"
- compound: "Cc1cc(-c2cc3ccccc3s2)c(Cl)c2c1NC(C)(C)CC2C (racemic)"
  Ki: "420 nM"
- compound: "CC(C)=CCOc1c(-c2cc(C)c3c(c2Cl)C(C)CC(C)(C)N3)cccc1[N+](=O)[O-] (racemic)"
  Ki: "56 nM"
- compound: "Cc1cc(-c2cccc3c2OCC(=O)N3C)c(Cl)c2c1NC(C)(C)CC2C (racemic)"
  Ki: "87 nM"
- compound: "CC(=O)c1ccccc1-c1cc(C)c2c(c1Cl)C(C)CC(C)(C)N2 (racemic)"
  Ki: "97 nM"
- compound: "Cc1cc(-c2ccsc2)c(Cl)c2c1NC(C)(C)C(O)C2C (racemic)"
  Ki: "130 nM"
